// provenance: patent US20170165339A1

The entries below come with measured peptide exchange yield values attached.
Target: HLA-A*24 (human)
Assay: UV peptide-exchange ELISA, yield grade

Guide cases for peptide exchange yield, answers given:
{"binder": "IYKVGAPTI [… (SEQ ID NO: 185)]", "peptide exchange yield": "50 to 75%"}
{"binder": "QYLGQIQHI [… (SEQ ID NO: 268)]", "peptide exchange yield": "50 to 75%"}
{"binder": "TFSVSSHLF [… (SEQ ID NO: 222)]", "peptide exchange yield": "50 to 75%"}

Request: Give the measured peptide exchange yield of NYYEVHKELF [… (SEQ ID NO: 270)] .
Result: 50 to 75%

Request: For KYTSWYVAL [… (SEQ ID NO: 228)] , what is its reported peptide exchange yield?
Result: > 75%

Request: What measured peptide exchange yield goes with LYIDRPLPYL [… (SEQ ID NO: 196)] ?
Result: 50 to 75%
